# IC50 annotations
# Test system: THP-1
# test.description: Cytotoxicity against Homo sapiens (human) THP1 cells after 48 hr by SRB assay
# Assay type: functional, cell-based
# condition.summary: THP-1, 48 h
result.type: IC50

input.smiles	result
Clc1cccc2sc(NCCCBr)nc12	1.72 µM
Cc1ccc2nc(NCCBr)sc2c1	39.9 µM
Clc1cc2nc(NCCBr)sc2cc1Cl	8.46 µM
Clc1ccc2nc(NCCBr)sc2c1	97.8 µM
COc1ccc2nc(NCCBr)sc2c1	110 µM
Fc1ccc2nc(NCCBr)sc2c1	1 µM

###

# Tested on: THP-1
# test.description: Cytotoxicity against Homo sapiens (human) THP1 cells after 48 hr by SRB assay
# Assay type: functional, cell-based
# condition.summary: THP-1, 48 h
// reported IC50 for each item listed

input.smiles	IC50 / µM
CO[C@@]12[C@H](COC(N)=O)C3=C(C(=O)C(C)=C(N)C3=O)N1C[C@@H]1N[C@@H]12	1.5
Clc1cc2nc(NCCCBr)sc2cc1Cl	7
Clc1cccc2sc(NCCBr)nc12	110
Fc1ccc2nc(NCCCBr)sc2c1	0.9
Cc1ccc2nc(NCCCBr)sc2c1	30.3
Clc1ccc2nc(NCCCBr)sc2c1	60
COc1ccc2nc(NCCCBr)sc2c1	3

###

# System: Caco-2
# test.description: Cytotoxicity against Homo sapiens (human) Caco2 cells after 48 hr by SRB assay
# Type: functional, cell-based
# condition.summary: Caco-2, 48 h
Each entry below carries its reported IC50.

input.smiles	IC50 (µM)
Fc1ccc2nc(NCCBr)sc2c1	16.8
Clc1cc2nc(NCCBr)sc2cc1Cl	8.4
Cc1ccc2nc(NCCBr)sc2c1	67.7
Clc1cccc2sc(NCCBr)nc12	26.9
COc1ccc2nc(NCCBr)sc2c1	47.9

###

# pIC50 annotations
# Tested on: PC-3
# test.description: Cytotoxicity against Homo sapiens (human) PC3 cells after 48 hr by SRB assay
# Format: functional, cell-based
# condition.summary: PC-3, 48 h
pIC50: −log10 of the molar value.

input.smiles	pIC50
COc1ccc2nc(NCCCBr)sc2c1	6.22
Clc1ccc2nc(NCCBr)sc2c1	4.00
Cc1ccc2nc(NCCCBr)sc2c1	4.27
Clc1cccc2sc(NCCCBr)nc12	5.51
Clc1cc2nc(NCCCBr)sc2cc1Cl	4.55
Fc1ccc2nc(NCCCBr)sc2c1	5.60
COc1ccc2nc(NCCBr)sc2c1	4.00
Clc1cccc2sc(NCCBr)nc12	3.96
Fc1ccc2nc(NCCBr)sc2c1	5.00
Cc1ccc2nc(NCCBr)sc2c1	4.39
Clc1cc2nc(NCCBr)sc2cc1Cl	4.62
Clc1ccc2nc(NCCCBr)sc2c1	4.20

###

# Tested on: Caco-2
# test.description: Cytotoxicity against Homo sapiens (human) Caco2 cells after 48 hr by SRB assay
# Format: functional, cell-based
# condition.summary: Caco-2, 48 h
pIC50: −log10 of the molar value.
// reported pIC50 for each item listed
result.type: pIC50

compound	target.entity	relation	quantitative.result
O=c1[nH]cc(F)c(=O)[nH]1 [FLUOROURACIL]	Caco-2	=	4.68
Clc1cccc2sc(NCCCBr)nc12	Caco-2	<	4.00
Clc1ccc2nc(NCCBr)sc2c1	Caco-2	<	4.00
COc1ccc2nc(NCCCBr)sc2c1	Caco-2	=	5.00
Cc1ccc2nc(NCCCBr)sc2c1	Caco-2	=	4.09
Clc1cc2nc(NCCCBr)sc2cc1Cl	Caco-2	=	4.20
Clc1ccc2nc(NCCCBr)sc2c1	Caco-2	=	4.48
Fc1ccc2nc(NCCCBr)sc2c1	Caco-2	=	4.03
